The origin of these recorded values is PubChem BioAssay (NCI).

test system: IGROV1 ovarian; experiment: NCI-60 one-dose screen, 48 h (100 = growth as untreated, 0 = no growth, -100 = all killed); settings: 10 µM unless noted
About 83,000 compounds went through this panel and 20% of them were active in at least one assay; those are over-represented in the sample as a whole.
assay readout: growth (%)

- COc1cc(Cn2c(-c3nonc3N)nc3ccccc32)ccc1C: 47.6
- COc1cc(OC)c(C(=O)/C=C/c2ccc(C#N)cc2)c(OC)c1: 14
- CCN1C(=O)N(CC)C2C1NN=c1s/c(=C\c3cccc(F)c3)c(=O)n12 (stereo unspecified): 29.9
- CC(C)N(Cc1ccc(CN(C(=O)CCl)C(C)C)cc1)C(=O)CCl: -49.3
- N#CC1=C(N)OC2=C(C(=O)CCC2)C1c1ccco1 (stereo unspecified): 107
- Nc1c(C(=O)Nc2ccccc2)sc2nc3c(cc12)CN(Cc1ccccc1)CC3: 77.9
- Nc1c(C(=O)Nc2cccc(Cl)c2Cl)sc2nc3c(cc12)C(=O)CCC3: 72.8
- O=C(NCCc1c[nH]c2ccccc12)C1Cc2ccccc2CN1C(=O)c1ccco1 (stereo unspecified): 3.58
- C=CCOc1cccc(/C=C/C(=O)c2sc(Nc3cccnc3)nc2C)c1: 62.9
- COc1cc(Cn2c(SCC(=O)Nc3ccc(Cl)cc3)nc3ccccc3c2=O)cc(OC)c1OC: 41.6
- CCN(Cc1ccccc1)c1ccc(SC#N)cc1: 103

###

system: HCT-116 colon; experiment: NCI-60 one-dose screen, 48 h (100 = growth as untreated, 0 = no growth, -100 = all killed); settings: 10 µM unless noted
Compounds without any hit were thinned out: in the full panel of roughly 83,000, 20% have a hit.
Think of 20% as a floor: if growth stands on it or above, it is 1; beneath it, -1.

* COc1cccc(NC(=O)Cn2cc3c(=O)oc4ccccc4c3n2)c1 | 1
* COc1ccc(C2=CC(c3ccc(Oc4ccnc5cc(Cl)ccc45)c(OC)c3)c3c(nc(OC)[nH]c3=O)N2)cc1 (stereo not given) | 1
* CCOC(=O)CC/C(C)=N\Nc1ccc([N+](=O)[O-])cc1 | 1
* O=c1[nH]c2ccccc2cc1-c1nnc(Cc2ccccc2)o1 | -1
* Cc1ccc2nc(-c3c(N)n[nH]c3CCCO)[nH]c(=O)c2c1 | 1
* COc1ccc(-c2nc3sccn3c2-c2ccnc(NCCNS(=O)(=O)c3ccc(C(F)(F)F)cc3)n2)cc1 | -1
* O=C(CCl)NCCNc1nccc(Nc2ccc(S(=O)(=O)Nc3ccccn3)cc2)n1 | -1
* CCCCOc1nc2c(C)cccc2cc1C1CNC(=O)c2ccccc2N1 (stereo not given) | 1
* N#Cc1c(NC(=O)c2ccc([N+](=O)[O-])o2)[n+]([O-])c2cc(F)c(F)cc2[n+]1[O-] | 1
* O=C(O)Cc1ccc2c(c1)Cc1cccnc1O2 | 1
* COc1ccc(-c2nc3sccn3c2-c2ccnc(NCCCNS(=O)(=O)c3ccc(C)cc3)n2)cc1 | 1
* O=C(c1c[nH]c2ccccc12)C(Sc1nc2ccccc2c(=O)[nH]1)c1ccccc1 (stereo not given) | 1
* O=C1C2=C(C(=O)c3c(O)ccc(O)c31)N(c1cccnc1)Cc1ccccc1O2 | -1
* COc1ccc(/C=C/C(=O)c2cccc(B(O)O)c2)cc1O | -1
* COc1ccc(/C=C/C(=O)OCC(=O)NNC(=O)c2ccccc2)cc1OC | 1
* COc1cc(Br)c(OC)cc1Br | 1
* CCn1cc(C(=O)O)c(=O)c2cc(F)c(N3CCN(S(=O)(=O)c4ccc(Cl)cc4Cl)CC3)cc21 | -1
* O=C(/C=C/CN1CCOCC1)Nc1cc2c(Nc3cccc(Cl)c3F)ncnc2cc1OCCOC(F)F | 1
* COc1cc(/C=C2\CCCC3=C2N=C2SC(C)=NN2C3c2cc(OC)c(OC)c(OC)c2)cc(OC)c1OC (stereo not given) | -1
* CN(C)CCCNC(=O)C(c1ccccc1)c1ccccc1 | 1
* CC(=O)OC[Si](C)(C)c1ccccc1 | 1
* CC(C)(C)c1cc(-c2nc3ccc(N4CCN(CCO)CC4)cc3[nH]2)cc(C(C)(C)C)c1O | 1
* O=C(CCCn1c(=O)c2sc3ccccc3c2n2nnc(-c3ccccc3)c12)NCCc1cnc[nH]1 | -1
* Cc1ccc2c(c1)C(=O)C(c1c(-c3[nH]c(=O)c4ccc(C)cc4c3O)c(O)c3ccccc3c1O)=NC2=O | -1
* COc1cc(C2C=C(C)N=C3SC=C(C)N32)cc(OC)c1OC (stereo not given) | -1
* COC1=CC(c2ccc[nH]2)=N/C1=C\c1[nH]c(C)c(C(=O)CCCCC(=O)NCc2ccccc2)c1C | -1
* CCCCCCCN(CCCCCCC)C(=N)c1ccc(OC)c2ccccc12 | -1
* COC(=O)CCCCN=Cc1c(O)c(O)c(C(C)C)c2cc(C)c(-c3c(C)cc4c(C(C)C)c(O)c(O)c(C=NCCCCC(=O)OC)c4c3O)c(O)c12 | -1
* CN=S(=O)(NC(=O)c1ccc(Cl)cc1Cl)c1ccc(Br)s1 (stereo not given) | 1
* CCCOC(=O)C1(O)CCCC1 | 1
* CCCS(=O)(=O)c1nc(NC2CC2)cc(-c2ccc3c(ccn3C3CC(C)(C)NC(C)(C)C3)c2)n1 | -1
* COc1cc(C(=O)/C=C/c2cc(C(=O)c3cc(OC)c(OC)c(OC)c3)ccc2OC)ccc1N | -1
* CCn1cc(C(=O)O)c(=O)c2cc(F)c(N3CCN(S(=O)(=O)c4cccc5ccccc45)CC3)cc21 | -1
* COc1ccc(C(=O)/C=C/c2ccc(/C=C/c3cc(OC)c(OC)c(OC)c3)cc2)cc1 | -1
* COc1ccc2c(c1)NC(=O)CN2c1nc(C)nc2ccccc12 | -1
* COc1ccc(NC(=O)CSc2nc3ccccc3c(=O)n2-c2ccccc2C(F)(F)F)c(OC)c1OC | 1
* Nc1c(C(=O)Nc2ccccc2)sc2nc3c(cc12)CCCCC3 | -1
* Cc1ccc(Cn2c(-c3nonc3N)nc3ccccc32)cc1 | 1
* O=S(=O)(NCCCNc1cc(-c2cn(-c3ccccc3)nc2-c2cccc(O)c2)ccn1)c1ccc(Br)cc1 | -1

###

tested on: MDA-MB-231 breast; assay: NCI-60 one-dose screen, 48 h; conditions: 10 µM unless noted
Compounds without any hit were thinned out: in the full panel of roughly 83,000, 20% have a hit. Active and inactive are the calls of the source. Rule for the calls: active = growth percent below 10; inactive = the rest.
Possible outcomes: True for active, False for inactive

- O=C(N/N=C/c1c(Cl)cccc1Cl)c1ccccc1Nc1ccnc(C(F)(F)F)c1: False
- FC(F)(F)c1cccc(-n2nnc3cnc(Nc4ccc(N5CCCCC5)cc4)nc32)c1: False
- COC(=O)CCCCCCN=Cc1c(O)c(O)c(C(C)C)c2cc(C)c(-c3c(C)cc4c(C(C)C)c(O)c(O)c(C=NCCCCCCC(=O)OC)c4c3O)c(O)c12: False
- CCOP(=O)(CCN1CCN(CCCCCOc2cc3c(cc2OC)C(=O)N2CCC[C@H]2C=N3)CC1)OCC: False
- c1cc(-c2ccc3c(c2)OCO3)n2nccc2n1: False
- COc1ccc(/C=C/C(=O)c2cccc(B(O)O)c2)cc1O: False
- COc1ccc(/C(=N/O)c2cc(F)c(F)c(OC)c2F)cc1O: False
- Nc1c(C(=O)Nc2ccccc2)sc2nc3c(cc12)CCC3: False
- Cc1ccc(S(=O)(=O)N2CCC(C(=O)Nc3ccc(F)cc3F)CC2)cc1: False
- CC(Cc1nnc(SCC(=O)Nc2ccc(I)cc2)n1N)c1ccccc1 (configuration not stated): False
- CC(=O)N1Cc2ccccc2C(C)Cc2cc(Cl)ccc21 (configuration not stated): False
- COc1cc(Cn2c(-c3nonc3N)nc3ccccc32)ccc1C: False
- COc1cc(C2CC(c3c(C)[n+]([O-])c4ccccc4[n+]3[O-])=NN2)cc(OC)c1OC (configuration not stated): False
- CCCCCC/C=C\CCCCCCCCOc1ccc(CCOP(=O)(O)OCC[N+](C)(C)C)cc1: False
- COc1ccc(-c2nnc(COc3ccc(NS(=O)(=O)c4ccc(OC)cc4)cc3F)o2)cc1: False
- O=C1Nc2ccc(Br)cc2C1=N/C=c1\[nH]c(=O)/c(=C/c2ccc(Cl)cc2)s1: False
- O=C1CCCCC=C1C[N+](=O)[O-]: False
- C=CCOc1cccc(/C=C/C(=O)c2sc(Nc3cccnc3)nc2C)c1: False
- O=c1[nH]c(-c2cn(-c3ccc(Cl)cc3)nn2)nc2ccccc12: False
- COc1cc2c(cc1OC)C1(C)N(CC2)C(=O)OC1(C)C (configuration not stated): False
- O=C(NNC(=S)Nc1ccccc1)c1ccccn1: False
- CCN1C(=O)N(CC)C2C1NN=c1s/c(=C\c3ccccn3)c(=O)n12 (configuration not stated): False
- O=c1oc2cc(OS(=O)(=O)c3ccccc3)c(Cl)cc2c2c1CCCCCC2: False
- O=C1CCCCN1CCCCC#Cc1ccccc1C#Cc1ccccn1: False
- COc1ccccc1OCC(=O)Nc1sc2c(c1C(N)=O)CCC2: False
- Nc1nc(N)c2nc(CNc3ccc(C(=O)CC(CCC(=O)O)C(=O)O)cc3)cnc2n1 (configuration not stated): False
- COC1=CC(c2ccc[nH]2)=N/C1=C\c1[nH]c(C)c(C(=O)CCCCC(=O)Oc2ccc3c(c2)CCC2C3CC[C@]3(C)[C@@H](O)CC[C@@H]23)c1C (some centres not stated): False
- O=S(=O)(NCCCNc1nccc(-c2c(-c3ccc(O)cc3)nc3sccn23)n1)c1ccc(F)cc1: True
- CC/C=C\C[C@H]1C/C=C2/C(=O)C(Cl)=C[C@@H]2C/C=C\CCCC(=O)O1: True
- O=C(C[N+](=O)[O-])c1ccc(Cl)cc1: False
- Cc1ccc2nc(-c3c(CCCO)noc3N)[nH]c(=O)c2c1: False
- CCCCCCCCCCn1cc[n+](C)c1: False
- Cn1cc(C=O)c2ccccc21: False
- COc1ccc(-c2cn[nH]c2-c2cc(OC)c3c(c2)OCCO3)cc1: False
- O=C1N=C(c2c(-c3[nH]c(=O)c4ccc(Br)cc4c3O)c(O)c3ccccc3c2O)C(=O)c2cc(Br)ccc21: True
- Cc1nc(Nc2cccnc2)sc1C(=O)/C=C/c1ccc(Cl)cc1: False
- Cc1ccc(S(=O)(=O)NCCCNc2nccc(-c3c(-c4ccccc4)nc4sccn34)n2)cc1: False
- C=CCc1cc(Cl)cc2c(OC(C)=O)c(C(C)=O)c(-c3ccccc3)nc12: False
- COc1ccc(S(=O)(=O)Nc2cc(/C=C\c3cc(OC)c(OC)c(OC)c3)cc(OC)c2OC)cc1OC: False
- Cc1ccc(C(=O)c2sc3nc4c(cc3c2N)CCCC4)c(C)c1: False
- CCSc1nnc(NC(=O)Cc2ccc(Cl)cc2)s1: False
- O=C(c1ccccc1)C(Cl)C(Cl)c1ccccc1 (configuration not stated): False
